The entries below are paired with their reported MIC.
Test system: E. coli ATCC25922
Experiment: Bacterial growth minimal inhibitory concentration (CLSI broth microdilution)
Assay type: cell-based
Details: Escherichia coli, ATCC25922; quinolone-sensitive strain; cation-adjusted Mueller-Hinton Broth
Procedure: Minimal Inhibitory Concentrations (MICs; mg/L) were determined in cation-adjusted Mueller-Hinton Broth by a microdilution method following the description given in “Methods for Dilution Antimicrobial Susceptibility Tests for Bacteria that Grow Aerobically”, Approved standard, 7th ed., Clinical and Laboratory Standards Institute (CLSI) Document M7-A7, Wayne, Pa., USA (2006). All Reference Example compounds were tested against several Gram-negative bacteria. […]
observationType: MIC (µg/mL)

* CN1CC(F)(c2ccc(C#Cc3cc4n(c3)C(=O)N(CC[C@](C)(C(=O)NO)S(C)(=O)=O)C4)cc2)C1 | 0.125
* C[C@@](CCN1Cc2cc(C#CC#CC3(F)CNC3)cn2C1=O)(C(=O)NO)S(C)(=O)=O | 2
* CN1C[C@H](C#CC#Cc2cc3n(c2)C(=O)N(CC[C@](C)(C(=O)NO)S(C)(=O)=O)C3)[C@H]1CO | 0.5
* C[C@@](CCN1Cc2cc(C#CC#CCN3CCC(O)CC3)cn2C1=O)(C(=O)NO)S(C)(=O)=O | 2

Source listed as patent US10314823B2.
